The reported measurements were obtained from patent US20220071971A1.

target: delF508-CFTR (Homo sapiens, UniProt P13569, DEL508-508); construct: expressed in transfected cells; test: Measurement of delF508-CFTR-HRP surface expression in CFBE41o- cells; assay type: cell-based; details: CFBE41o-; efficacy relative to reference compound 3-(6-(1-(2,2-difluorobenzo[d][1,3]dioxol-5-yl)cyclopropane-1-carboxamido)-3-methylpyridin-2-yl)benzoic acid; read-out: DelF508-CFTR-HRP Amax %
Sequence (P13569 with tags, fused parts or gaps DEL508-508): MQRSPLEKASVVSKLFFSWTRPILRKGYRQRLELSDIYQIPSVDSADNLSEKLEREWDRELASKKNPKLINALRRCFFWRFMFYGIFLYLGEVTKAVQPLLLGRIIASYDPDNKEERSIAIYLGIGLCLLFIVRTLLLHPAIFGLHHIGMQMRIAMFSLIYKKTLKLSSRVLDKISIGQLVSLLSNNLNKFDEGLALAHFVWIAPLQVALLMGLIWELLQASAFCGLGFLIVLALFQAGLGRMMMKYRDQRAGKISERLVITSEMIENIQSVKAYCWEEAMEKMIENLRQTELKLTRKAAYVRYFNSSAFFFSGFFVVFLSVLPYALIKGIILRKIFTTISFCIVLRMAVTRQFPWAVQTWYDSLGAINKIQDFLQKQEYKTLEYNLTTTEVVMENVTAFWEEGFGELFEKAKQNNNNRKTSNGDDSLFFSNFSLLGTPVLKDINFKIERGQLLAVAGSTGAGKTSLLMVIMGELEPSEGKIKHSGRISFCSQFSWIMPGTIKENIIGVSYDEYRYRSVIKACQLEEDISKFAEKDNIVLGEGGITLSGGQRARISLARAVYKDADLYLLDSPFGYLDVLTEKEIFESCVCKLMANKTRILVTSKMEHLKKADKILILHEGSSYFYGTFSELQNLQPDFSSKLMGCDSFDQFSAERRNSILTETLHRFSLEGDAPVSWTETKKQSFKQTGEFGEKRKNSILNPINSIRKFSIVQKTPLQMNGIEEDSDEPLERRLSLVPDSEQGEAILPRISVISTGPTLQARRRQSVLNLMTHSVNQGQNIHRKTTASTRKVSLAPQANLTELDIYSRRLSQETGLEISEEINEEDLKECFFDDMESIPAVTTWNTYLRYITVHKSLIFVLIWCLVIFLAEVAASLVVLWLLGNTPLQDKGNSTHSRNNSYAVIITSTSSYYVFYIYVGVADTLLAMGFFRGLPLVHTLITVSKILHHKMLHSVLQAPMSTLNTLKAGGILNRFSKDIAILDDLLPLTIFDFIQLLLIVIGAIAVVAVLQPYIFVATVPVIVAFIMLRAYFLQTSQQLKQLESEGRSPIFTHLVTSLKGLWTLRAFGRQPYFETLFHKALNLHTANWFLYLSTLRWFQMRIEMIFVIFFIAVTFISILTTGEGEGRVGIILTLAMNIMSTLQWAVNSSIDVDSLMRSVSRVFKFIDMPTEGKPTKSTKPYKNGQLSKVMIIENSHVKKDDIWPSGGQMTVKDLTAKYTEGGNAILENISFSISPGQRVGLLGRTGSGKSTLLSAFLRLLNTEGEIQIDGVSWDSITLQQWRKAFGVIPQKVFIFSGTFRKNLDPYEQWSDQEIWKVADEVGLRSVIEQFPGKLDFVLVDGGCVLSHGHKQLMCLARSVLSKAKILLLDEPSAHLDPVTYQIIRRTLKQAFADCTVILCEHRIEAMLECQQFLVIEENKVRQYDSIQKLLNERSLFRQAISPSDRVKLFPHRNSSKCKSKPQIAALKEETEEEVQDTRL
Provide the reported Emax of each item.
Numeric only. Scale: %

q: # lookup: Emax of `O=S1(=O)Nc2ccc(C(F)(F)F)c(n2)-c2cc(F)ccc2OCCCCN(CCCO)c2cccc1n2`
a: 666

q: # lookup: Emax of `O=C(O)CCN1CCCCCc2ccccc2-c2cccc(n2)NS(=O)(=O)c2cccc1n2`
a: 179

q: # lookup: Emax of `O=S1(=O)Nc2ccc(Cl)c(n2)-c2ccccc2CCCOc2cccc1n2`
a: 97.1

* * *

Provide the reported EC50 of each item.
biological target: delF508-CFTR (Homo sapiens, UniProt P13569, DEL508-508); construct: expressed in transfected cells; test: Measurement of delF508-CFTR-HRP surface expression in CFBE41o- cells; assay type: cell-based; settings: HRP-tagged delF508-CFTR surface expression, CFBE41o- cells, 24 h with compound, 10-point curve, highest concentration 10 μM
Numeric only. Scale: nM

q: # lookup: EC50 of CC1(C)OCC(CN2CCCCCc3ccccc3-c3nc(ccc3C(F)(F)F)NS(=O)(=O)c3cccc2n3)O1 (stereo not shown)
a: 385

q: # lookup: EC50 of `O=C(O)CCCN1CCCCCc2ccc(F)cc2-c2nc(ccc2C(F)(F)F)NS(=O)(=O)c2cccc1n2`
a: 293

q: # lookup: EC50 of `CCOC(=O)C(C)(C)CN1CCCCCCc2ccccc2-c2nc(ccc2C(F)(F)F)NS(=O)(=O)c2cccc1n2`
a: 295

q: # lookup: EC50 of `O=C(O)CCCCCN1CCCCCc2ccccc2-c2nc(ccc2C(F)(F)F)NS(=O)(=O)c2cccc1n2`
a: 373

* * *

Provide the reported Emax of each item.
molecular target: delF508-CFTR (Homo sapiens, UniProt P13569, DEL508-508); construct: expressed in transfected cells; assay: Measurement of delF508-CFTR-HRP surface expression in CFBE41o- cells; type: cell-based; conditions: CFBE41o-; efficacy relative to reference compound 3-(6-(1-(2,2-difluorobenzo[d][1,3]dioxol-5-yl)cyclopropane-1-carboxamido)-3-methylpyridin-2-yl)benzoic acid; read-out: DelF508-CFTR-HRP Amax %
Answer format: number, then unit.

q: # get_value(readout= Emax, system= delF508-CFTR (Homo sapiens, UniProt P13569, DEL508-508)) for `O=C(O)CCN1CCCCCc2ccccc2-c2nc(ccc2Cl)NS(=O)(=O)c2cccc1n2`
a: 858%

q: # get_value(readout= Emax, system= delF508-CFTR (Homo sapiens, UniProt P13569, DEL508-508)) for `O=S1(=O)Nc2ccc(C(F)(F)F)c(n2)-c2cc(F)ccc2OCCCCN(CCCCO)c2cccc1n2`
a: 592%

q: # get_value(readout= Emax, system= delF508-CFTR (Homo sapiens, UniProt P13569, DEL508-508)) for O=C(O)CCC1CCCCc2ccccc2-c2nc(ccc2C(F)(F)F)NS(=O)(=O)c2cccc(n2)O1 (stereo not drawn)
a: 170%
